assay: blockers of an Epstein-Barr virus protein-peptide interaction – biochemical, fluorescence polarization, dose response (AID 1419); details: cell-free protein-peptide binding, 2 h
The source made the active and inactive calls. The rule behind the calls is not given here.
API: response.call in active, inactive

Here's what some known entries look like.
COc1ccccc1N1CCN(CC(O)COc2cccc3ccccc23)CC1 (stereo not drawn) ... inactive
O=c1[nH]c2c(s1)C=Nc1ccccc1N2 ... active
CC1=CC(=C(C#N)c2nc3ccccc3s2)C=C(C)N1CC1CCCO1 (stereo not drawn) ... active
O=C1C(=Cc2ccc(Br)o2)C(=O)c2ccccc21 ... inactive
Cc1n[nH]c(C)c1N1C(=O)c2cccc3c(N4CCCCCC4)ccc(c23)C1=O ... active
COc1cc(CCC(=O)N2CCN(c3ncccn3)CC2)cc(OC)c1OC ... inactive
CCOC(=O)/C(C#N)=C/c1cc2ccccc2nc1N1CCCCC1 ... active
COc1ccc(-c2nnc(Nc3ccc(S(=O)(=O)Nc4nccs4)cc3)c3ccccc23)cc1 ... inactive
Cn1c(=O)c2[nH]c(-c3ccccc3Cl)c(O)c2n(C)c1=O ... active
Cc1ccccc1NC(=O)CSc1ccsc1[N+](=O)[O-] ... active

Asked: I'd appreciate the recorded outcome for O=C1c2cccc3c([N+](=O)[O-])ccc(c23)C(=O)N1CC1CCCO1 (stereo not drawn) from this test.
Given back: active

Asked: I'd appreciate the recorded outcome for `CCNc1ccc2noc3c2c1C(=O)c1ccccc1-3` from this test.
Given back: active

Asked: I'd appreciate the recorded outcome for `CN(C)c1ccc(/C=N/NC(=O)c2cnc3ccccc3c2)cc1` from this test.
Given back: active

Asked: I'd appreciate the recorded outcome for `Cc1ccc(C)n1-c1cc(S(=O)(=O)N2CCOCC2)ccc1N1CCCC1` from this test.
Given back: inactive

Asked: I'd appreciate the recorded outcome for Cc1ccc(C2C3=C(CCCC3=O)Nc3[nH]c(=S)[nH]c(=O)c32)cc1 (stereo not drawn) from this test.
Given back: inactive

Asked: I'd appreciate the recorded outcome for `Cc1cc(NS(=O)(=O)c2ccc(NC(=O)c3cc4cc(Br)ccc4oc3=O)cc2)no1` from this test.
Given back: active

Asked: I'd appreciate the recorded outcome for `CNC(=S)NN(c1ccccc1)c1ccccc1` from this test.
Given back: inactive

* * *

test: blockers of an Epstein-Barr virus protein-peptide interaction – biochemical, fluorescence polarization, dose response (AID 1419); conditions: cell-free protein-peptide binding, 2 h
Activity calls are given as the source filed them. No rule for the calls is given here.
API: response.call in active, inactive

Here's what some known entries look like.
CC(=O)c1ccc(NC(=O)CSc2ccsc2[N+](=O)[O-])cc1 ... inactive
CCN(CC)c1ccc(N=Cc2c(O)n(-c3ccc(OC)cc3)c(=O)[nH]c2=O)cc1 ... active
CCCCOc1ccc(-c2cc(C(F)(F)F)c(C#N)c(SCC(=O)O)n2)cc1 ... active
CSc1c(C#N)c(N)nc2sc(C(=O)c3ccc(Cl)c(Cl)c3)c(N)c12 ... active
COc1ccc(NC(=O)CSc2ccc3c4c(cccc24)C(=O)c2ccccc2-3)cc1 ... active

Asked: I'd appreciate the recorded outcome for `O=C(O)CCC(=O)NCCC1=c2ccccc2=N/C1=C\c1c(O)n(Cc2ccc(F)cc2)c(=S)[nH]c1=O` from this test.
Given back: active

Asked: I'd appreciate the recorded outcome for `Cc1ccccc1N1C(=O)NC(=O)/C(=C\c2ccc3c(c2)CCCN3Cc2ccccc2)C1=O` from this test.
Given back: active

Asked: I'd appreciate the recorded outcome for `Cn1c(=O)c(NCCc2ccccc2)c2c3c(cccc31)C(=O)c1ccccc1-2` from this test.
Given back: active

Asked: I'd appreciate the recorded outcome for `COc1cc2c(cc1OC)-c1cc3ccc4c(c3c[n+]1CC2)OCO4` from this test.
Given back: active

Asked: I'd appreciate the recorded outcome for N#CC1CC(c2ccc([N+](=O)[O-])cc2)=NN1c1ccc([N+](=O)[O-])cc1 (stereo not given) from this test.
Given back: active

* * *

experiment: blockers of an Epstein-Barr virus protein-peptide interaction – biochemical, fluorescence polarization, dose response (AID 1419); details: cell-free protein-peptide binding, 2 h
Activity calls are given as the source filed them. The rule behind the calls is not given here.
API: response.call in active, inactive

Here's what some known entries look like.
COCCCn1c(=NC(=O)c2ccccc2)c(C#N)cc2c(=O)n3cccc(C)c3nc21 ... active
O=C(C1=C(O)C(=O)N(c2ncccn2)C1c1cccs1)c1ccco1 (configuration not stated) ... active
CCCn1c(SCCc2ccccc2)nc2c1c(=O)[nH]c(=O)n2C ... inactive
O=C1NC(=S)/C(=C\c2ccc(-c3ccccc3Cl)o2)S1 ... active
O=C1CCCC2=C1Sc1ccccc1N2 ... active
Nc1ccc2nc3c(=O)n(CCc4ccccc4)c(=O)[nH]c3nc2c1 ... active
Cc1cccc(C)c1NC(=O)COC(=O)c1c2c(nc3ccccc13)/C(=C\c1ccc3c(c1)OCO3)CCC2 ... inactive
CCN(CC)CCN1C(=O)c2cccc3cc(N)cc(c23)C1=O ... active

Asked: I'd appreciate the recorded outcome for COc1ccc(C2C=C(c3ccc(Cl)cc3)Nc3nc(NC(C)=O)nn32)cc1 (configuration not stated) from this test.
Given back: active

Asked: I'd appreciate the recorded outcome for `CCOC(=O)c1cc2n(c1/N=C/N(C)C)-c1ccccc1C2=O` from this test.
Given back: active

Asked: I'd appreciate the recorded outcome for `Cc1cc2nc3c(=O)n(Cc4ccccc4)c(=O)[nH]c3nc2cc1N` from this test.
Given back: active

Asked: I'd appreciate the recorded outcome for `C(=N\N1CCOCC1)/c1nc(-c2ccccc2)n2ccccc12` from this test.
Given back: active

* * *

Below, each entry is listed alongside its reported IC50.
test: blockers of an Epstein-Barr virus protein-peptide interaction – biochemical, fluorescence polarization, dose response (AID 1419); details: cell-free protein-peptide binding, 2 h

Asked: Name the recorded IC50 for `CCn1nc(-c2ccccc2)nc2c(=O)n(C)c(=O)nc1-2` .
Given back: 4.3 µM

* * *

test: blockers of an Epstein-Barr virus protein-peptide interaction – biochemical, fluorescence polarization, dose response (AID 1419); details: cell-free protein-peptide binding, 2 h
Calls of active or inactive are those of the source. How the calls were made is not given here.
API: response.call in active, inactive

Here's what some known entries look like.
CC(=O)Oc1ccc(C(=O)Nc2cccc(C(=O)c3cccc(NC(=O)c4ccc(OC(C)=O)cc4)c3)c2)cc1 ... inactive
Cc1ccc2nc(SCC(=O)Nc3ccccc3N3CCOCC3)c(C#N)cc2c1 ... inactive
CCC1(CC)NC(=O)N(CC(=O)Nc2sc3c(c2C(N)=O)CCC3)C1=O ... inactive
O=C1/C(=N\S(=O)(=O)c2cccs2)C([n+]2cccc(Cc3ccccc3)c2)=C([O-])c2ccccc21 ... active
O=C(C1=C(O)C(=O)N(c2nccs2)C1c1ccccc1)c1cc2ccccc2o1 (centres undefined) ... active
COc1nc(NCCC2=CCCCC2)nc(OC)n1 ... inactive
Cc1ccc(N=Nc2c(N)[nH]n3c(=O)cc(-c4ccccc4)nc23)cc1 ... inactive
Cc1cc(/C=C(\C#N)c2nc3ccccc3[nH]2)c(C)n1C ... active

Asked: I'd appreciate the recorded outcome for `Cc1ccc(C(=O)ONc2ccc(N=NC(=O)c3ccccc3O)cc2)cc1` from this test.
Given back: active

Asked: I'd appreciate the recorded outcome for `COc1ccc(Cc2nnc(NC(=O)Cc3cccs3)s2)cc1OC` from this test.
Given back: inactive

* * *

test: blockers of an Epstein-Barr virus protein-peptide interaction – biochemical, fluorescence polarization, dose response (AID 1419); conditions: cell-free protein-peptide binding, 2 h
Calls of active or inactive are those of the source. No rule for the calls is given here.
API: response.call in YES (active), NO (inactive)

Here's what some known entries look like.
Nc1ccc(O)c2c1C(=O)c1ccccc1C2=O ... YES
CCN(CC)c1ccc2oc(=O)c(C)nc2c1 ... YES
O=C(N/N=C/c1cc(Cl)cc([N+](=O)[O-])c1O)NC12CC3CC(CC(C3)C1)C2 ... NO
Cc1c2ccccc2nc2c(F)c(NC(C)C)c(F)c(F)c12 ... YES
CCN(CC)S(=O)(=O)c1ccc(C(=O)OCCN2C(=O)c3cccc4c(N5CCOCC5)ccc(c34)C2=O)cc1 ... YES
COc1cc([N+](=O)[O-])ccc1-c1ccc(/C=N/NC(=O)c2ccccc2O)o1 ... NO
CN1C=CC2=C(C#N)C(N)C(C#N)(C#N)C(c3ccccc3)C2C1 (stereo unspecified) ... YES
CCCn1c(=C(C#N)C#N)s/c(=C2\C=Cc3ccccc3N2CC)c1=O ... NO
N#C/C(=C\c1sc(N2CCOCC2)nc1-c1ccccc1)C(=O)Nc1cccc2ccccc12 ... NO
COC(=O)CCCCC1SCC(NC(=O)c2ccccc2)C1Cl (stereo unspecified) ... YES

Asked: I'd appreciate the recorded outcome for N#CC1(C#N)CC(C=O)=C(N)C1(C#N)CC(=O)C12CC3CC(CC(C3)C1)C2 (stereo unspecified) from this test.
Given back: NO

Asked: I'd appreciate the recorded outcome for `Cc1nn(C)cc1N1C(=O)c2cccc3c(N)ccc(c23)C1=O` from this test.
Given back: YES

Asked: I'd appreciate the recorded outcome for `Cc1[nH]c(=O)[nH]c(=O)c1S(=O)(=O)N1CCN(c2ccccc2F)CC1` from this test.
Given back: NO

Asked: I'd appreciate the recorded outcome for CN(C(=O)COC(=O)c1cc(-c2ccco2)nc2ccccc12)C1CCS(=O)(=O)C1 (stereo unspecified) from this test.
Given back: YES

Asked: I'd appreciate the recorded outcome for `Cn1c(SCC(=O)Nc2ccc3nc(SCC(=O)N4CCCC4)sc3c2)nnc1-c1ccccc1` from this test.
Given back: NO

Asked: I'd appreciate the recorded outcome for `COc1ccccc1N1C(C)=CC(=C(C#N)c2nc3ccccc3s2)C=C1C` from this test.
Given back: YES

Asked: I'd appreciate the recorded outcome for `CCCN(CCC)S(=O)(=O)c1ccc(C(=O)OCCN2C(=O)c3cccc4c(N5CCOCC5)ccc(c34)C2=O)cc1` from this test.
Given back: YES

Asked: I'd appreciate the recorded outcome for `N#C/C(=C\C1=C(N2CCOCC2)C(=C\c2ccccc2)/CC1)C(=O)Nc1ccccc1F` from this test.
Given back: YES
